Each entry below carries its reported kon.
Molecular target: T1, human LAP-TGFB1 Fc fusion (human)
T1 construct: also called human LAP-TGFβ1-Fc; human LAP-TGFβ-Fc isoform 1
T1 sequence (chain, as listed by the source limits assumed): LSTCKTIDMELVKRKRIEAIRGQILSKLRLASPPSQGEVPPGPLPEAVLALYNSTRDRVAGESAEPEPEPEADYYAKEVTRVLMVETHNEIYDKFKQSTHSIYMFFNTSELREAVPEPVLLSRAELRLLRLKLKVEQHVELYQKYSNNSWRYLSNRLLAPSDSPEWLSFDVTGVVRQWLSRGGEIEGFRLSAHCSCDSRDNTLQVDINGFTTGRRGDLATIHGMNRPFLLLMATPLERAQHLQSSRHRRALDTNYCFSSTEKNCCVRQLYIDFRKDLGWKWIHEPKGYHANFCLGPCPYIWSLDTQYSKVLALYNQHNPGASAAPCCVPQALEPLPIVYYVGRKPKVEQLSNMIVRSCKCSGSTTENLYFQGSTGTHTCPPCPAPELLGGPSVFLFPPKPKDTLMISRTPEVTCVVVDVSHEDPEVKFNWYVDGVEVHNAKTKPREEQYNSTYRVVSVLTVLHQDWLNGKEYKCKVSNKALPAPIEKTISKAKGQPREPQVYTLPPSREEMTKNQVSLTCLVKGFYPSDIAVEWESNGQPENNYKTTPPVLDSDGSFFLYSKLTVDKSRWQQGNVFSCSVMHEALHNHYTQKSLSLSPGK
Test: SPR, antigen-Fc captured, Fab analyte
Procedure: This Example describes the isoform specificity of the yeast display mutants to bind to human LAP-TGFβ isoforms 1, 2, and 3 using surface plasmon resonance. […] Binding rate constants were determined by fitting the data with a 1:1 binding model (GE Healthcare Biacore T200 Evaluation software 3.0).
Answer with a number only, understood to be in M⁻¹ s⁻¹.

Worked set:
# BINDER, U, READOUT NUMBER
data = [
    ("66BJN (Fab, V domains shown, also called VH W33D S55T Y101H / VL T30Y L94Q (66BJN)) VH: EVQLVQSGAEVKKPGASVKVSCKASGYTFTSYDMHWVRQAPGQGLEWMGRIDPQTGGIKYAQKFQGRATLTVDTSTSTAYMELSRLRSDDTAVYYCARWDHGGYFDVWGQGTLVTVSS VL: DIQMTQSPSSLSASVGDRVTITCRASQDIYNYLNWYQQKPGKAVKLLIYYTSRLHSGVPSRFSGSGSGTDYTLTISSLQPEDFATYFCQQGDTQPWTFGQGTKLEIKR", "M⁻¹ s⁻¹", "2.11e+06"),
    ("74BJN (Fab, V domains shown, also called VH S31Y W33D M34L / VL T30Y T93D L94I (74BJN)) VH: EVQLVQSGAEVKKPGASVKVSCKASGYTFTYYDLHWVRQAPGQGLEWMGRIDPQSGGIKYAQKFQGRATLTVDTSTSTAYMELSRLRSDDTAVYYCARWDYGGYFDVWGQGTLVTVSS VL: DIQMTQSPSSLSASVGDRVTITCRASQDIYNYLNWYQQKPGKAVKLLIYYTSRLHSGVPSRFSGSGSGTDYTLTISSLQPEDFATYFCQQGDDIPWTFGQGTKLEIKR", "M⁻¹ s⁻¹", "4.45e+06"),
]

Incoming: Field request: kon | item: 63BJN (Fab, V domains shown, also called VH S31F W33D M34I / VL T30Y (63BJN)) VH: EVQLVQSGAEVKKPGASVKVSCKASGYTFTFYDIHWVRQAPGQGLEWMGRIDPQSGGIKYAQKFQGRATLTVDTSTSTAYMELSRLRSDDTAVYYCARWDYGGYFDVWGQGTLVTVSS VL: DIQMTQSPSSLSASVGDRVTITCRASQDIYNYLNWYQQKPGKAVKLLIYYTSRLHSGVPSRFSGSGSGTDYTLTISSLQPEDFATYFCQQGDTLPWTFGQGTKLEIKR
Outgoing: 1.64e+06
